System: 171881-019-R-J1-PDC tumor spheroids, viability;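 further: spheroids exposed to compounds for 7 days; 100% = DMSO vehicle control viability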
assay-method-text: Anticancer human tumor 171881-019-R-J1-PDC patient-derived invasive breast carcinoma cell line growth inhibition [GQUAD]
applied-conditions: second compound 0.0316 µM; first compound 0.316 µM; active compounds read low; spheroids with HUVEC and MSC
property: viability, T/C (%)
Give the quantity in %, number only.

Q: Query (compound): O=C(NO)c1cnc(N2CCN(S(=O)(=O)c3ccc4ccccc4c3)CC2)nc1 + Cc1cnc(CNC(=O)c2c(=O)c3ccc(N4CCCN(C)CC4)nc3n3c2sc2ccccc23)cn1 ; field requested: viability, T/C
Result: 36.3

Q: Also, Cn1ncnc1[C@H]1c2n[nH]c(=O)c3cc(F)cc(c23)N[C@@H]1c1ccc(F)cc1 + CN(C)c1ccc(Nc2c3ccc(NC(=O)CCN4CCCC4)cc3nc3cc(NC(=O)CCN4CCCC4)ccc23)cc1 please.
Result: 96.1

Q: Again, but for CC[C@@]1(O)C(=O)OCc2c1cc1n(c2=O)Cc2cc3c(CN(C)C)c(O)ccc3nc2-1 + Cc1[nH]c2ccc(F)cc2c1-c1nc2c3cccnc3c3ncccc3c2[nH]1
Result: 37.8

Q: // query: C#Cc1c(F)ccc2cc(O)cc(-c3ncc4c(N5CC6CCC(C5)N6)nc(OCC56CCCN5CC(F)C6)nc4c3F)c12 (stereo unspecified) + CN(C)c1ccc(Nc2c3ccc(NC(=O)CCN4CCCC4)cc3nc3cc(NC(=O)CCN4CCCC4)ccc23)cc1
Result: 53.9

Q: Quick one: Cc1[nH]c2ccccc2c1CCNCc1ccc(/C=C/C(=O)NO)cc1 + CN(C)c1ccc(Nc2c3ccc(NC(=O)CCN4CCCC4)cc3nc3cc(NC(=O)CCN4CCCC4)ccc23)cc1
Result: 0.39

Q: Record: C#Cc1c(F)ccc2cc(O)cc(-c3ncc4c(N5CC6CCC(C5)N6)nc(OCC56CCCN5CC(F)C6)nc4c3F)c12 (stereo unspecified) + Cc1cnc(CNC(=O)c2c(=O)c3ccc(N4CCCN(C)CC4)nc3n3c2sc2ccccc23)cn1
Result: 52.7

Q: Try the compound Cc1cccc(N(C)C(=O)C2C(O)CCN2c2nc(C)cc(C(F)(F)F)c2C#N)c1 (stereo unspecified) + Cc1cnc(CNC(=O)c2c(=O)c3ccc(N4CCCN(C)CC4)nc3n3c2sc2ccccc23)cn1
Result: 90.4

Q: Subsequent entry: C=CC(=O)N1CCN(c2nc(=O)n(-c3c(C)ccnc3C(C)C)c3nc(-c4c(O)cccc4F)c(F)cc23)C(C)C1 (stereo unspecified) + CN(C)c1ccc(Nc2c3ccc(NC(=O)CCN4CCCC4)cc3nc3cc(NC(=O)CCN4CCCC4)ccc23)cc1
Result: 102

Q: Try the compound CC1COCCN1c1cc(-c2ccnn2C)c2ccnc(-c3ccn[nH]3)c2n1 (stereo unspecified) + Cc1cnc(CNC(=O)c2c(=O)c3ccc(N4CCCN(C)CC4)nc3n3c2sc2ccccc23)cn1
Result: 13.9

Q: For O=c1[nH]cc(F)c(=O)[nH]1 + Cc1[nH]c2ccc(F)cc2c1-c1nc2c3cccnc3c3ncccc3c2[nH]1 then?
Result: 62.7

Q: What about this compound? COc1ncnc(C2CC2)c1-c1ncc2cnn(Cc3ccc(-c4nc(C(F)(F)F)cn4C(C)C)cc3)c2n1 + Cc1cnc(CNC(=O)c2c(=O)c3ccc(N4CCCN(C)CC4)nc3n3c2sc2ccccc23)cn1
Result: 82.4
